target: Cytochrome P450 1A2 (Homo sapiens) (UniProt P05177); experiment: Cytochrome panel assay with activity outcomes; conditions: recombinant CYP, pro-luciferin dealkylation, luminescence, p450-cyp1a2; series mostly up to 57.1 µM
Sequence (P05177 whole entry, looked up): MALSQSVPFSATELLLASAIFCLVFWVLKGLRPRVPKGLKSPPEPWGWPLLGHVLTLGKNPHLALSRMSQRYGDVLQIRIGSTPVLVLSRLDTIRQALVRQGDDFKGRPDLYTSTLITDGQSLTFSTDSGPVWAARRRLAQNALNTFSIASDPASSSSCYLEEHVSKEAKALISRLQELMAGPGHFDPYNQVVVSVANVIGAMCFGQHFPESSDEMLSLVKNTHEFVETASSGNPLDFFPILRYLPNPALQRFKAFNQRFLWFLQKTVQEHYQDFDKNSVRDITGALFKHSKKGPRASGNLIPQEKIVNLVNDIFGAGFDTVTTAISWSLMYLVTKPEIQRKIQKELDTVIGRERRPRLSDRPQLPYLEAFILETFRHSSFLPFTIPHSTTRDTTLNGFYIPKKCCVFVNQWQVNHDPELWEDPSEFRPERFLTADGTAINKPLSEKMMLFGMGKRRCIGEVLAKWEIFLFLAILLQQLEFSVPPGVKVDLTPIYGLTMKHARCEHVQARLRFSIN
Out of some 16,000 compounds screened, about 5,700 (36%) were called active. Roughly 24% stayed inconclusive and do not appear here. The list shows a part of the results.

MOLECULE: C[n+]1ccc(/C=C/c2ccc(Br)cc2)cc1
AC50: inactive
--
MOLECULE: CNc1nc(-c2ccccc2C(F)(F)F)nc2ccccc12
AC50: 251 nM (active)
--
MOLECULE: Cc1ccc(C)c(-c2nn(-c3cc(N4CCN(CCO)CC4)ccc3[N+](=O)[O-])c(=O)c3ccccc23)c1
AC50: inactive
--
MOLECULE: COc1ccc(CNc2ncncc2-c2ccccc2C)c(OC)c1
AC50: 10000 nM (active)
--
MOLECULE: Brc1ccc2ncnc(Nc3cccc4ccccc34)c2c1
AC50: 1580 nM (active)
--
MOLECULE: Cc1cc(C(=O)NNCc2ccccc2)no1
AC50: 12600 nM (active)
--
MOLECULE: COC(=O)C1=C(C)C(c2ccc(OC)cc2)NC(=S)N1 (stereo not given)
AC50: inactive
--
MOLECULE: CC(=O)c1cc(C#N)c(Oc2cccc(C(F)(F)F)c2)nc1C
AC50: 1120 nM (active)
--
MOLECULE: CN(Cc1ccco1)c1ccnc(-c2cccnc2)n1
AC50: 794 nM (active)
--
MOLECULE: CC(C)(C)c1ccc(C(=O)N2CCC(C(=O)NCCC3=CCCCC3)CC2)cc1
AC50: inactive
--
MOLECULE: COC(=O)c1cc(C#N)c(NCc2ccc(Cl)cc2Cl)nc1C
AC50: inactive
--
MOLECULE: COc1ccc(N2CCN(C(=S)Nc3cccc(C)c3)CC2)cc1
AC50: inactive
--
MOLECULE: COc1cccc(-c2nccc(N(C)Cc3ccco3)n2)c1
AC50: 631 nM (active)
--
MOLECULE: COc1ccccc1NC(=O)c1nc[nH]c1C(=O)Nc1ccccc1OC
AC50: 200 nM (active)
--
MOLECULE: Cc1cccc(/C(N)=N/OC(=O)CCCN2C(=O)c3ccccc3C2=O)c1
AC50: 15800 nM (active)
--
MOLECULE: O=C(c1ccco1)N1CCC2(CC1)CN(c1ccccn1)C2
AC50: inactive
--
MOLECULE: CNC(=O)c1sc(SC)cc1-c1ccc(Cl)cc1
AC50: 355 nM (active)
--
MOLECULE: Cc1cc(CNC(=O)[C@H]2C[C@@H]2[C@H](NP(=O)(c2ccccc2)c2ccccc2)c2ccccc2)nn1C
AC50: inactive
--
MOLECULE: Cc1cnc(CNc2ncnc3ccc(-c4ccc(N(C)C)cc4)cc23)cn1
AC50: 1000 nM (active)
--
MOLECULE: CC1(C)Cc2c(sc3nc(-c4ccccc4)n(N)c(=O)c23)CO1
AC50: 7080 nM (active)
--
MOLECULE: CN(C)C(=O)c1ccc(-c2ccc3ncnc(Nc4ccccc4)c3c2)cc1
AC50: 15800 nM (active)
--
MOLECULE: Cc1cc(C)n2c(SCC(=O)N(C)C3CCS(=O)(=O)C3)nnc2n1 (stereo not given)
AC50: inactive
--
MOLECULE: Cc1cccc(N(C)C(=S)Oc2ccc3ccccc3c2)c1
AC50: 2510 nM (active)
--
MOLECULE: CCC[C@@H]1C[C@@]1(CCC)C(NS(=O)(=O)c1cccc2cccnc12)c1ccc(Cl)cc1 (stereo not given in full)
AC50: inactive
--
MOLECULE: CCOC(=O)c1c(CC(C)C)csc1NC=O
AC50: 224 nM (active)
